Below, each of the compounds is paired with its reported IC50 value.
- STUDY TARGET: NAD synthetase (recombinant protein from B. subtilis; purified) (Bacillus subtilis)
- Construct: made in house
- Sequence (P08164 whole entry): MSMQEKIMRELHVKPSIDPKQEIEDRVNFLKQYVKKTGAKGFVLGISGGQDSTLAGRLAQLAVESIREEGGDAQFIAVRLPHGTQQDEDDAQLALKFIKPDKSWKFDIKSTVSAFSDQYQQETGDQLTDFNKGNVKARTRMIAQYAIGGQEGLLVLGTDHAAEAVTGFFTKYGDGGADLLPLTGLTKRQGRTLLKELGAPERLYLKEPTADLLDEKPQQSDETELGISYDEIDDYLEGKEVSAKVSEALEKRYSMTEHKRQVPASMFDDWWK
- ASSAY DETAILS: NAD synthetase enzyme inhibition assay (coupled enzymatic assay, HTS)
- Format: biochemical
- CONDITION CONTEXT: IC50 (μg/mL) for Inhibit. of NAD Synthetase, table of structures used in the yeast assay (Example 4)
RECORDED ENDPOINT: IC50 (µM)

{"COMPOUND": "COC(=O)c1cc2cc(OCc3ccccc3)ccc2n1CCCCCCCOC(=O)Cc1ccc([N+](C)(C)C)cc1.[I-] [Compound 988]", "STUDY TARGET": "NAD synthetase (recombinant protein from B. subtilis; purified) (Bacillus subtilis)", "OUTPUT UNIT": "µM", "QUALIFIER SIGN": "=", "READING": 14.3}
{"COMPOUND": "Cc1[nH]c2ccccc2c1/C=C/C1=[N+](C)c2ccccc2C1(C)C.[Cl-] [Compound 1400]", "STUDY TARGET": "NAD synthetase (recombinant protein from B. subtilis; purified) (Bacillus subtilis)", "OUTPUT UNIT": "µM", "QUALIFIER SIGN": ">", "READING": 570}
{"COMPOUND": "C[N+](C)(C)C(CCc1ccccc1)C(=O)OCCCCCCCCOc1ccc(OCc2ccccc2)cc1.[I-] (centres unmarked) [Compound 1260]", "STUDY TARGET": "NAD synthetase (recombinant protein from B. subtilis; purified) (Bacillus subtilis)", "OUTPUT UNIT": "µM", "QUALIFIER SIGN": "=", "READING": 45.5}
{"COMPOUND": "C[N+](C)(C)C(Cc1ccccc1)C(=O)OCCCCCCCCOc1ccc(OCc2ccccc2)cc1.[I-] (centres unmarked) [Compound 1230]", "STUDY TARGET": "NAD synthetase (recombinant protein from B. subtilis; purified) (Bacillus subtilis)", "OUTPUT UNIT": "µM", "QUALIFIER SIGN": "=", "READING": 31}
{"COMPOUND": "C[N+](C)(C)c1ccc(CCCC(=O)OCCCCCCCCOc2ccc(OCc3ccccc3)cc2)cc1.[I-] [Compound 1200]", "STUDY TARGET": "NAD synthetase (recombinant protein from B. subtilis; purified) (Bacillus subtilis)", "OUTPUT UNIT": "µM", "QUALIFIER SIGN": "=", "READING": 53.1}
{"COMPOUND": "COC(=O)c1cc2cc(OCc3ccccc3)ccc2n1CCCCCCCOC(=O)c1ccc(CN(C)C)cc1 [Compound 1096]", "STUDY TARGET": "NAD synthetase (recombinant protein from B. subtilis; purified) (Bacillus subtilis)", "OUTPUT UNIT": "µM", "QUALIFIER SIGN": "=", "READING": 180}
{"COMPOUND": "COC(=O)c1cc2ccccc2[n+](C)c1-c1c[nH]c2ccccc12.[I-] [Compound 1500]", "STUDY TARGET": "NAD synthetase (recombinant protein from B. subtilis; purified) (Bacillus subtilis)", "OUTPUT UNIT": "µM", "QUALIFIER SIGN": ">", "READING": 450}
{"COMPOUND": "C[N+](C)(C)c1ccc(CC(=O)OCCCCCCCCOc2ccc(OCc3ccccc3)cc2)cc1.[I-] [Compound 1094]", "STUDY TARGET": "NAD synthetase (recombinant protein from B. subtilis; purified) (Bacillus subtilis)", "OUTPUT UNIT": "µM", "QUALIFIER SIGN": "=", "READING": 31.7}
